Hey, just so you know, these numbers are from patent US20240041042A1.

- Tested on: Echinochloa crus-galli (ECHCG)
- METHOD: Post-emergence herbicidal action against ECHCG
- Type: in vivo
- ASSAY CONTEXT: dosage 80 g/ha
READOUT TYPE: Post-emergence action against ECHCG in %

// known answers, use as guide
>>> readout_value("COC(=O)C(C)NC(=O)[C@@H](C)Oc1nn(-c2ccccn2)c(-c2cncc(F)c2)c1Cl (stereo partly drawn) [Example I-199]")
"90%"
>>> readout_value("CCOC(=O)[C@@H](C)Oc1nn(-c2nc(F)ccc2F)c(-c2cncc(F)c2)c1Br [Example I-388]")
"90%"
>>> readout_value("CCCOC(=O)COc1nn(-c2ncccc2F)c(-c2ccc(F)nc2)c1C1CC1 [Example I-344]")
"90%"
>>> readout_value("COCCOC(=O)COc1nn(-c2ncccc2C(F)(F)F)c(-c2cncc(F)c2)c1Br [Example I-157]")
"80%"
>>> readout_value("COC(=O)CNC(=O)[C@@H](C)Oc1nn(-c2ccccn2)c(-c2cncc(F)c2)c1Cl [Example I-185]")
"80%"

Continue with the next compound.
GET /values?readout=Post-emergence action against ECHCG in %&item= O=C(O)COc1nn(-c2ccccn2)c(-c2ccc(F)nc2)c1Cl [Example I-98]
80%

----------
- System: Setaria viridis (SETVI)
- METHOD: Post-emergence herbicidal action against SETVI
- Format: in vivo
- ASSAY CONTEXT: dosage 80 g/ha
Listing: Post-emergence action against SETVI in % of selected compounds
Unit % implied. Number only.

>>> readout_value("CCOC(=O)[C@@H](C)Oc1nn(-c2ncccc2F)c(-c2cncc(F)c2)c1Cl")
90
>>> readout_value("COC(=O)[C@H](C)COC(=O)[C@@H](C)Oc1nn(-c2ccccn2)c(-c2ccc(F)nc2)c1Cl")
90
>>> readout_value("CCOC(=O)CSc1nn(-c2ccccn2)c(-c2cncc(F)c2)c1I")
80

Continue with the next compound.
GET /values?readout=Post-emergence action against SETVI in %&item= "COCCOC(=O)COc1nn(-c2ccccn2)c(-c2ccc(F)nc2)c1Br"
90

----------
- Tested on: Zea mays (ZEAMX)
- Assay type: in vivo
- ASSAY CONTEXT: 20 g/ha; crop plant compatibility, effect vs untreated controls
Listing: Pre-emergence action against ZEAMX of selected compounds
Unit % implied. Number only.

// known answers, use as guide
>>> readout_value("COC(=O)[C@@H](C)Oc1nn(-c2ccc(F)cn2)c(-c2ccc(F)nc2)c1Br")
10
>>> readout_value("C[C@@H](Oc1nn(-c2ccc(F)cn2)c(-c2cncc(F)c2)c1Br)C(=O)O")
10
>>> readout_value("CCOC(=O)COc1nn(-c2ccccn2)c(-c2ccc(F)nc2)c1Br")
0

GET /values?readout=Pre-emergence action against ZEAMX&item= "COC(=O)COc1nn(-c2ncccc2F)c(-c2cncc(F)c2)c1Br"
10

----------
- Test system: Alopecurus myosuroides (ALOMY)
- METHOD: Pre-emergence herbicidal action against ALOMY
- Format: in vivo
- ASSAY CONTEXT: 320 g/ha; scored visually after about 3 weeks; 100% = plants have died
Listing: Pre-emergence action against ALOMY of selected compounds
Unit % implied. Number only.

>>> readout_value("COC(=O)C(C)COC(=O)[C@@H](C)Oc1nn(-c2ccccn2)c(-c2cncc(F)c2)c1Cl (stereo partly shown)")
90

Find the measured Pre-emergence action against ALOMY: item "C[C@H](NC(=O)COc1nn(-c2ccccn2)c(-c2cncc(F)c2)c1Br)C(=O)O" , target or system Alopecurus myosuroides (ALOMY).
100

Find the measured Pre-emergence action against ALOMY: item "COC(=O)[C@@H](C)Oc1nn(-c2ccccn2)c(-c2cncc(F)c2)c1Br" , target or system Alopecurus myosuroides (ALOMY).
100

Find the measured Pre-emergence action against ALOMY: item CCOC(=O)C(C)Oc1nn(-c2ccccn2)c(-c2ccc(F)nc2)c1C(F)(F)F (stereo not shown) , target or system Alopecurus myosuroides (ALOMY).
90
